The reported measurements were obtained from the RNAGym collection of RNA variant scans (doi:10.7554/elife.80360).

B1: HDV Ribozyme (parent)
chain: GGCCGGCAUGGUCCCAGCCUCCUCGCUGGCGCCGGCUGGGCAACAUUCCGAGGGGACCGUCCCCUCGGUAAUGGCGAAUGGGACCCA

# Variants of: B1
# assay: self-cleavage, relative activity (ratio to wild type); higher = more cleavage; co-transcriptional
Would you mind telling me the reported self-cleavage of each entry?
Answers are plain numbers.

Worked examples, 5 variants total:
[
  {
    "primary-sequence": "GGCCGGCAUGGUCCCAGCCUCCUCGCUGGCGCCGGCUGGGCAACAUUCCGAGGGGACCGUCCCCUUGGUAAUAGCGAAUGGGACCCA",
    "metric-name": "self-cleavage",
    "result": 0.66
  },
  {
    "primary-sequence": "GGCCGGCAUGGUCCCAGCCUCCUCGCUGGCGCCGGCUGGGCGACAUUCCGAGGGGACUGUCCCCUCGGUAAUGGCGAAUGGGACCCA",
    "metric-name": "self-cleavage",
    "result": 0.617
  },
  {
    "primary-sequence": "GGCCGGCAUGGUCCCAGCCUCCUCGCUGGCGCCGGCUGGGAAUCAUUCCGAGGGGACCGUCCCCUCGGUAAUGGCGAAUGGGACCCA",
    "metric-name": "self-cleavage",
    "result": 0.57
  },
  {
    "primary-sequence": "GGCCGGCAUGGUCCCAGCCUCCUCGCUGGCCCCGGCUGGGCAACAUUCCGAGGGGACCGUCCCUUCGGUAAUGGCGAAUGGGACCCA",
    "metric-name": "self-cleavage",
    "result": 0.324
  },
  {
    "primary-sequence": "GGCCGGCAUGGUCCCAGCCUCCUCGCUGGCGCCGGAUGGGCAACAUUCCGAGGGGACCGUCCCCUGGGUAAUGGCGAAUGGGACCCA",
    "metric-name": "self-cleavage",
    "result": 0.177
  }
]

Take each entry in turn and give its self-cleavage.
1. GGCCGGCAUGGUCCCCGCCUCCUCGCUGGCGCCGGCUGGGCAACAUUCCGAGGGGACCGUCCCCUCGGUAAUGGCGAAUGGGACCGA
2. GGCCGGCAUUGUCCCAGCCUCCUCGCUGGCGCCGGCUGGGCAACAUUCCGAGGGGACCGACCCCUCGGUAAUGGCGAAUGGGACCCA

Result string:
1. 0.653
2. 0.635
